target_or_system: DNAPK (Homo sapiens (Human), UniProt P78527)
measurement_protocol: DNAPK cellular potency assay (DNA-PK cell), pS2056-DNAPK ELISA in irradiated A549 cells
Format: cell-based
reported_conditions: 8 Gy radiation, arithmetic mean of two or more experiments, read-out: DNA-PK cell pIC50 (converted)
measurement_name: IC50 (nM)
One number for each entry, in nM.

Cc1cnc2cc(Nc3ncc4c(n3)n(C3CCOCC3)c(=O)n4C)c(C)cc2n1	126
CC(=O)N1CCC(n2c(=O)n(C)c3cnc(Nc4cc5nccnc5cc4C)nc32)CC1	50.1
Cc1cc2ncccc2cc1Nc1ncc2c(n1)n([C@H]1CC[C@H](O)CC1)c(=O)n2C	5.01
CC(=O)N1CCC(n2c(=O)n(C)c3cnc(Nc4cc5cncnc5cc4C)nc32)CC1	63.1
Cc1cc2ncccc2cc1Nc1ncc2c(n1)n([C@H]1CC[C@](C)(N)CC1)c(=O)n2C	158

For every record below, what is its IC50?
1. Cc1cnc2cc(C)c(Nc3ncc4c(n3)n(C3CCOCC3)c(=O)n4C)cc2n1
2. Cc1cc2ncccc2cc1Nc1ncc2c(n1)n(C1COC1)c(=O)n2C

A:
[31.6, 31.6]

Q: Could you share which IC50 value was measured for Cc1cc2nnccc2cc1Nc1ncc2c(n1)n([C@H]1CC[C@@H](O)CC1)c(=O)n2C ?
A: 20

----------
target_or_system: TTK (Homo sapiens (Human))
measurement_protocol: TTK enzyme assay (LanthaScreen Eu Kinase Binding)
reported_conditions: arithmetic mean of two or more experiments; read-out: TTK enz pIC50 (converted)
measurement_name: log10 IC50 (log10 of the value in µM)
Reminder: these figures are log10 of reported IC50, in µM before transformation.

Record excerpt, results attached:
Cc1cc2nccnc2cc1Nc1ncc2c(n1)n([C@H]1CC[C@@H](O)CC1)c(=O)n2C	-0.50
Cc1cc2ncccc2cc1Nc1ncc2c(n1)n([C@H]1CC[C@@](C)(N)CC1)c(=O)n2C	0.60
Cc1cc2nccnc2cc1Nc1ncc2c(n1)n([C@H]1CC[C@@](C)(O)CC1)c(=O)n2C	-0.70
Cc1cc2nccc(C)c2cc1Nc1ncc2c(n1)n([C@H]1CC[C@H](O)CC1)c(=O)n2C	-0.20
Cc1cc2nccnc2cc1Nc1ncc2c(n1)n([C@H]1CC[C@H](O)CC1)c(=O)n2C	-0.40

For every record below, what is its log10 IC50?
1. Cc1cnc2cc(C)c(Nc3ncc4c(n3)n(C3CCOCC3)c(=O)n4C)cc2n1
2. Cc1cnc2cc(Nc3ncc4c(n3)n(C3CCOCC3)c(=O)n4C)c(C)cc2n1

A:
1. 0.70
2. 0.10

For every record below, what is its log10 IC50?
1. Cc1cc2ncccc2cc1Nc1ncc2c(n1)n([C@H]1CC[C@](C)(N)CC1)c(=O)n2C
2. Cc1cc2ncccc2cc1Nc1ncc2c(n1)n([C@H]1CC[C@@H](O)CC1)c(=O)n2C
3. Cc1cc2nccnc2cc1Nc1ncc2c(n1)n([C@H]1CC[C@](C)(O)CC1)c(=O)n2C

A:
[0.20, -0.40, 0.20]

----------
For each record, write down the corresponding TTK enz pIC50.
target_or_system: TTK (Homo sapiens (Human), UniProt P33981)
Sequence (P33981 whole entry): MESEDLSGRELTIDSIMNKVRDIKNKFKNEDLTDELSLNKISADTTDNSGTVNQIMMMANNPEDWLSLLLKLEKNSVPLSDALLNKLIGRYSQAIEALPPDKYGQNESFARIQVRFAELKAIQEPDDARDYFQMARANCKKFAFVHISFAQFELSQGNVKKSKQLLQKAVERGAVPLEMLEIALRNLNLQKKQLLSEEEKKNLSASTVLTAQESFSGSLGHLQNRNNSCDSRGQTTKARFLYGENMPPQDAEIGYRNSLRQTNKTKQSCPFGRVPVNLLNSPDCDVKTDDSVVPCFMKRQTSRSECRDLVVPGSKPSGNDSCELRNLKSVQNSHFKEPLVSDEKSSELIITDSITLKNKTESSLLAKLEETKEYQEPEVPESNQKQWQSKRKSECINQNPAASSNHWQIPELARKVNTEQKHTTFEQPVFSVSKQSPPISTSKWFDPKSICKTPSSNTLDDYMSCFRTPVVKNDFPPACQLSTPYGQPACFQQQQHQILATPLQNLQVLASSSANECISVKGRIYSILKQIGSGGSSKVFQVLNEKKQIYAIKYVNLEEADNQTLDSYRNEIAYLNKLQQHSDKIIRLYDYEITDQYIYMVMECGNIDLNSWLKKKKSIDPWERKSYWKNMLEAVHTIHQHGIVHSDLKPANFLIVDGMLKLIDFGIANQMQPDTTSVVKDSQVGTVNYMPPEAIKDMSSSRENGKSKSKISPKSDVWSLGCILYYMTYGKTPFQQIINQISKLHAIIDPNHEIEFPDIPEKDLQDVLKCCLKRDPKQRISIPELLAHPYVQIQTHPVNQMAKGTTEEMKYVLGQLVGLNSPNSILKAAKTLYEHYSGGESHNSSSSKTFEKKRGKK
measurement_protocol: TTK enzyme assay (LanthaScreen Eu Kinase Binding)
reported_conditions: arithmetic mean of two or more experiments
Give bare numbers.

Record excerpt, results attached:
Cc1cc2ncccc2cc1Nc1ncc2c(n1)n(C1COC1)c(=O)n2C [Example 36]	6.0
Cc1cc2ncccc2cc1Nc1ncc2c(n1)n(C1CCS(=O)(=O)CC1)c(=O)n2C [Example 35]	5.9

Shift focus to the following entry.
Q: Could you share which TTK enz pIC50 value was measured for CC(=O)N1CCC(n2c(=O)n(C)c3cnc(Nc4cc5cccnc5cc4C)nc32)CC1 [Example 51] ?
A: 6.4

----------
For each record, write down the corresponding Vd.
measurement_protocol: Discrete PK Rat
Type: in vivo, han wistar rats
reported_conditions: Han Wistar, plasma, iv, read-out: volume of distribution (V)
Give bare numbers, in L/kg.

Cc1cc2ncccc2cc1Nc1ncc2c(n1)n([C@@H]1CNC[C@H]1F)c(=O)n2C	1.65

Q: Could you share which Vd value was measured for Cc1cc2ncccc2cc1Nc1ncc2c(n1)n(C1CCN(C)CC1)c(=O)n2C ?
A: 3.4

----------
target_or_system: Full length human DNAPK protein (Homo sapiens (Human))
measurement_protocol: DNAPK enzyme potency assay (DNA-PK enz), TR-FRET
Format: biochemical
reported_conditions: arithmetic mean of two or more experiments; 18 μM ATP
measurement_name: DNA-PK enz pIC50
One number for each entry.

Cc1cc2ncccc2cc1Nc1ncc2c(n1)n([C@@H]1CCN(C)C[C@@H]1F)c(=O)n2C	8.1

For every record below, what is its DNA-PK enz pIC50?
1. Cc1cc2nccnc2cc1Nc1ncc2c(n1)n([C@@H]1CCOC1)c(=O)n2C
2. CC(=O)N1CCC(n2c(=O)n(C)c3cnc(Nc4cc5nc(C)cnc5cc4C)nc32)CC1
3. CCN1CCC(n2c(=O)n(C)c3cnc(Nc4cc5cccnc5cc4C)nc32)CC1
4. Cc1cc2ncccc2cc1Nc1ncc2c(n1)n(C1CCN(CCO)CC1)c(=O)n2C
5. Cc1cc2nccnc2cc1Nc1ncc2c(n1)n([C@H]1CCOC1)c(=O)n2C

A:
[9.1, 9.1, 8.4, 9.0, 9.8]

----------
target_or_system: TTK (Homo sapiens (Human))
measurement_protocol: TTK enzyme assay (LanthaScreen Eu Kinase Binding)
reported_conditions: arithmetic mean of two or more experiments
measurement_name: TTK enz pIC50
Answers are plain numbers.

Record excerpt, results attached:
Cc1cc2nnccc2cc1Nc1ncc2c(n1)n([C@@H]1CCCOC1)c(=O)n2C	6.2
Cc1cc2ncccc2cc1Nc1ncc2c(n1)n(C1CCN(C3COC3)CC1)c(=O)n2C	5.8
Cc1cc2nnccc2cc1Nc1ncc2c(n1)n(C1CCOCC1)c(=O)n2C	6.4

For every record below, what is its TTK enz pIC50?
1. Cc1cc2nccnc2cc1Nc1ncc2c(n1)n([C@@H]1CCOC1)c(=O)n2C
2. Cc1cc2nnccc2cc1Nc1ncc2c(n1)n([C@H]1CCCOC1)c(=O)n2C

A:
1. 5.6
2. 6.4

----------
target_or_system: AURKB (Aurora B) (Homo sapiens (Human))
Sequence (Q96GD4 whole entry): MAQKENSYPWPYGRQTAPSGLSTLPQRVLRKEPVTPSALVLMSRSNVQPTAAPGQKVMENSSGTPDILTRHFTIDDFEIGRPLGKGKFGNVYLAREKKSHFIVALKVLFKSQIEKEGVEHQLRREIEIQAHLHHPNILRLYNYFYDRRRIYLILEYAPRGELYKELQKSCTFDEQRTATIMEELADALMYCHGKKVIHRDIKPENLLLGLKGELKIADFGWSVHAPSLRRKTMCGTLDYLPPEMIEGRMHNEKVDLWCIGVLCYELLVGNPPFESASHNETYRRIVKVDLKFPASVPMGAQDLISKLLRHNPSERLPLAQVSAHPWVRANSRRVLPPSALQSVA
measurement_protocol: Aurora-B enzyme assay (Z'-LYTE)
Format: biochemical
reported_conditions: 75 μM ATP; arithmetic mean of two or more experiments
For each record, write down the corresponding AurB enz pIC50.

Record excerpt, results attached:
Cc1cc2ncccc2cc1Nc1ncc2c(n1)n(C1COC1)c(=O)n2C [Example 36]	<5
Cc1cc2ncccc2cc1Nc1ncc2c(n1)n(C1CCN(CCO)CC1)c(=O)n2C [Example 48]	<5

Shift focus to the following entry.
Q: Could you share which AurB enz pIC50 value was measured for Cc1cc2ncccc2cc1Nc1ncc2c(n1)n([C@H]1CC[C@H](O)CC1)c(=O)n2C [Example 6] ?
A: <5

----------
measurement_protocol: Discrete PK Dog
reported_conditions: beagle, plasma, iv, 0.5 mg/kg
measurement_name: Vd (L/kg)
Numbers only, in L/kg.

Q: Could you share which Vd value was measured for Cc1cc2ncccc2cc1Nc1ncc2c(n1)n(C1CCN(C)CC1)c(=O)n2C ?
A: 7.8

----------
For each record, write down the corresponding IC50.
target_or_system: JAK1 (Homo sapiens (Human))
Sequence (P23458 whole entry): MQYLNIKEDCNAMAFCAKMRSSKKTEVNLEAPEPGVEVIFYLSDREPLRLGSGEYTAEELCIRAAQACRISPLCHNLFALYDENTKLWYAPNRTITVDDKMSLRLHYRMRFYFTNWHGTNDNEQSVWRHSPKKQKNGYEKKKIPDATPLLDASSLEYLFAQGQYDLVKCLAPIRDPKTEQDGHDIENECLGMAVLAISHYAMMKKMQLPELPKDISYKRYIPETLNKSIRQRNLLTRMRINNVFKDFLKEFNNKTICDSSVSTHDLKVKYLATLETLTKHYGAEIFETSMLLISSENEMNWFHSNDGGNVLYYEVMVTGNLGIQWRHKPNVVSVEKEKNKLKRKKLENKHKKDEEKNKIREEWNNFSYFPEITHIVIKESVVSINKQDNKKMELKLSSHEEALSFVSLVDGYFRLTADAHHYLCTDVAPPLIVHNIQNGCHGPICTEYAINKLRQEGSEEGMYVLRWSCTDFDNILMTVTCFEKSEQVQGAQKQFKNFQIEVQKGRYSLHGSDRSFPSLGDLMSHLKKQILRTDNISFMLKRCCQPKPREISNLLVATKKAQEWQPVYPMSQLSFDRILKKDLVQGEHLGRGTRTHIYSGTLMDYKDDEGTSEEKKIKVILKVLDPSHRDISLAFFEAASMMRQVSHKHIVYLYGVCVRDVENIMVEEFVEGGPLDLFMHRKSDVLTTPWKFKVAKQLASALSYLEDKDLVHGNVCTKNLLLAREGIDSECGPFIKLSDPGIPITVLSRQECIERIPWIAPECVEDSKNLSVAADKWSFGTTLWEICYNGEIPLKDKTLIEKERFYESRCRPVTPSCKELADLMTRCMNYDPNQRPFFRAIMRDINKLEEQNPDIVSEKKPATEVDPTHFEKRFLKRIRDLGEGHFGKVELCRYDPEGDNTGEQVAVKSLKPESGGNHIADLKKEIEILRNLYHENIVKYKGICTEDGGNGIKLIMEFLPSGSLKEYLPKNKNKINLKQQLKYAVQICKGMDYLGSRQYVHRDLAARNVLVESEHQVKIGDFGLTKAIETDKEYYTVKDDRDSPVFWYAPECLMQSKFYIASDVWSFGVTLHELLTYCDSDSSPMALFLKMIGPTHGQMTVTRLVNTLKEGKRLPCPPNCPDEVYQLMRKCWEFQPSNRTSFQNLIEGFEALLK
measurement_protocol: JAK1 enzyme assay (Z'-LYTE)
Type: biochemical
reported_conditions: 75 μM ATP; arithmetic mean of two or more experiments; read-out: JAK1 enz pIC50 (converted)

Record excerpt, results attached:
Cc1cc2ncccc2cc1Nc1ncc2c(n1)n([C@H]1CC[C@@](C)(N)CC1)c(=O)n2C	> 10 µM
Cc1cnc2cc(Nc3ncc4c(n3)n(C3CCOCC3)c(=O)n4C)c(C)cc2n1	> 10 µM
Cc1cc2nccnc2cc1Nc1ncc2c(n1)n([C@H]1CC[C@@H](O)CC1)c(=O)n2C	> 10 µM
Cc1cnc2cc(C)c(Nc3ncc4c(n3)n(C3CCOCC3)c(=O)n4C)cc2n1	> 10 µM
Cc1cc2ncccc2cc1Nc1ncc2c(n1)n([C@H]1CC[C@@H](O)CC1)c(=O)n2C	> 10 µM
Cc1cc2nccnc2cc1Nc1ncc2c(n1)n([C@H]1CC[C@@](C)(O)CC1)c(=O)n2C	> 10 µM
Cc1cc2nccnc2cc1Nc1ncc2c(n1)n([C@H]1CC[C@](C)(O)CC1)c(=O)n2C	> 10 µM
Cc1cc2nccc(C)c2cc1Nc1ncc2c(n1)n([C@H]1CC[C@H](O)CC1)c(=O)n2C	> 10 µM
Cc1cc2ncccc2cc1Nc1ncc2c(n1)n([C@H]1CC[C@](C)(N)CC1)c(=O)n2C	> 10 µM

Shift focus to the following entry.
Q: Request - read-out IC50 | tested on JAK1 (Homo sapiens (Human)) | compound Cc1cc2nccnc2cc1Nc1ncc2c(n1)n([C@H]1CC[C@H](O)CC1)c(=O)n2C
A: > 10 µM

Source listed as patent US11884671B2.
